- assay system: T1, recombinant human CD14 (B294801, histidine tagged) (Homo sapiens, UniProt P08571)
- T1 construct: His; purchased Shanghai BaiYing Biotechnology Co., Ltd B294801 (Batch number 20200518A22)
- T1 sequence (P08571 20-345): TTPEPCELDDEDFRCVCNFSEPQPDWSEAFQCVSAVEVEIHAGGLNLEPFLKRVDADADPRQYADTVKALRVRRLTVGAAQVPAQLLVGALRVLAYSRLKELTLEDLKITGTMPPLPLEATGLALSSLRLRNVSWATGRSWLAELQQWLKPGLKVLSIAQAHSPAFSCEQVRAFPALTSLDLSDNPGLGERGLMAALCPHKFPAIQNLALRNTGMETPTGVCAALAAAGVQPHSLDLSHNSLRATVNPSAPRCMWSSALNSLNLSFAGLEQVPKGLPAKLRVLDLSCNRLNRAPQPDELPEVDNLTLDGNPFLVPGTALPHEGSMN
- assay overview: Biacore 8K kinetic and affinity test of humanized antibodies (Example 8)
- Format: binding
- assay setup: Biacore 8K, analyte B294801 0.78125-25 nM, capture 1 μg/mL
observable: kon (1:1 binding) (M⁻¹ s⁻¹)
Kindly answer with a numeric value in M⁻¹ s⁻¹, unit omitted.

For orientation, consider the following solved cases.
D6DD3D002: humanized anti-CD14 antibody; VH SEQ ID NO: 5, VL SEQ ID NO: 7 (antibody, V domains shown) VH: QVQLQESGPGLVKPSQTLSLTCTVSGGSISSDSAWNWIRQHPGKGLEWIGYISYSGSTSYNPSLKSRVTISRDTSKNQFSLKLSSVTAADTAVYYCVRGLRFAYWGQGTLVTVSS VL: EIVLTQSPATLSLSPGERATLSCRASESVDSYVNSFLHWYQQKPGQAPRLLIYRASNLQSGIPARFSGSGSRTDFTLTISSLEPEDVAVYYCQQSNEDPYTFGQGTKLEIK
1.69e+06
D6DD3D003: humanized anti-CD14 antibody; VH SEQ ID NO: 9, VL SEQ ID NO: 11 (antibody, V domains shown) VH: QVQLQESGPGLVKPSETLSLTCTVSGGSISSDSAWNWIRQPPGKGLEWIGYISYSGSTSYNPSLKSRVTISRDTSKNQFSLKLSSVTAADTAVYYCVRGLRFAYWGQGTLVTVSS VL: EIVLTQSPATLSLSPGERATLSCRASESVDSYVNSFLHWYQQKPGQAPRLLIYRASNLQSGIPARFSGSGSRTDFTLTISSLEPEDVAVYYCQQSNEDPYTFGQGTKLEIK
1.82e+06

Give recorded kon (1:1 binding). D6DD3D012: humanized anti-CD14 antibody; VH SEQ ID NO: 45, VL SEQ ID NO: 47 (antibody, V domains shown) VH: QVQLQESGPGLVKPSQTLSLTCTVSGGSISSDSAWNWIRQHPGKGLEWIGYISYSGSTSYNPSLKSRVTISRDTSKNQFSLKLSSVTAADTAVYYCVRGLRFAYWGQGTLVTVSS VL: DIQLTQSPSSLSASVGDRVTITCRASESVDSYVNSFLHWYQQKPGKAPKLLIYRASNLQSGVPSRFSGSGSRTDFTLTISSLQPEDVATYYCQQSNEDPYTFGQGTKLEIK 1.64e+06

Output kon (1:1 binding) of D6DD3D011: humanized anti-CD14 antibody; VH SEQ ID NO: 41, VL SEQ ID NO: 43 (antibody, V domains shown) VH: QVQLQESGPGLVKPSQTLSLTCTVSGYSITSDSAWNWIRQPPGKGLEWIGYISYSGSTSYNPSLKSRVTISRDTSKNQFSLKLSSVTAADTAVYYCVRGLRFAYWGQGTLVTVSS VL: DIVLTQSPDSLAVSLGERATINCRASESVDSYVNSFLHWYQQKPGQPPKLLIYRASNLQSGVPDRFSGSGSRTDFTLTISSLQAEDVAVYYCQQSNEDPYTFGQGTKLEIK 1.71e+06
